Target: hNPRA (Homo sapiens)
Sequence (P16066 33-1061): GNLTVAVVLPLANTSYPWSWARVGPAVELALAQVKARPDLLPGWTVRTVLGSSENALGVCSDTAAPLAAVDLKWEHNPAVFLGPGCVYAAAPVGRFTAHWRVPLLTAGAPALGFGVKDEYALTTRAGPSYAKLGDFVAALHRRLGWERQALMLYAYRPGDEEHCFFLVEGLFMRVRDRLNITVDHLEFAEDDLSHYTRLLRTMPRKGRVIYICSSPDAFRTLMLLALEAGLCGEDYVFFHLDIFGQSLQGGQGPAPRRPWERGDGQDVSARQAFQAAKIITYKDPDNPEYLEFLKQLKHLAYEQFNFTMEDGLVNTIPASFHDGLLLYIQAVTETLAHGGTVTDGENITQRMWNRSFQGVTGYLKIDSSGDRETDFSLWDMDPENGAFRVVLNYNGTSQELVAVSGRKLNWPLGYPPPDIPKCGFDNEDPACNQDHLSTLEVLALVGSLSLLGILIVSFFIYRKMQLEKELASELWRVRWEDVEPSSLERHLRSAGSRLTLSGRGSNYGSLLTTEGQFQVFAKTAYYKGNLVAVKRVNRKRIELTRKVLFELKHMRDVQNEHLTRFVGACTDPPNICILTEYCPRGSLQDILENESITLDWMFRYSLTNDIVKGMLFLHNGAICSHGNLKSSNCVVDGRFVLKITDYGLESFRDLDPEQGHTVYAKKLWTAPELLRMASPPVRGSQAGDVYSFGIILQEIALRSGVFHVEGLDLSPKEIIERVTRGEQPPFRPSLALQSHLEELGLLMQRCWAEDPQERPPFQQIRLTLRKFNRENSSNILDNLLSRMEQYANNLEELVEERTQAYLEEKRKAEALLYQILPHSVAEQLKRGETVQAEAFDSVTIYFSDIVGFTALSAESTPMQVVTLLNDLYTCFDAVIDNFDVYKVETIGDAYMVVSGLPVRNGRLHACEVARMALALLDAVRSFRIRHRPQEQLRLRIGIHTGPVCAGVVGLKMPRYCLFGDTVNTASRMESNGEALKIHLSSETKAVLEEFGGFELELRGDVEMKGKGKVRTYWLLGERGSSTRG
Experiment: NPRA Functional Cell Assay (cGMP HTRF, NPRA HEK JumpIn stable cells)
Details: cGMP production, 1 hour at 37° C., 10-point dose response
pEC50: −log10 of the molar value.
assayEndpoint: pEC50

Reference set, count: 5
CC(C)(C)[C@H]1CCc2nc3sc(C(=O)N[C@H](CCN4C[C@H](O)C[C@H]4CO)c4ccc(-c5ccc(=O)[nH]c5)cc4)cc3cc2C1 (racemic) [Example 71]	5.70
CC(C)(C)[C@H]1CCc2nc3sc(C(=O)N[C@H](CCN4CCCC4)c4ccccc4)cc3cc2C1 [Example 253]	5.49
CC(C)(C)[C@H]1CCc2nc3sc(C(=O)N[C@H](CCN4CCC(O)CC4)c4ccc(-c5ccc(=O)[nH]c5)cc4)nc3cc2C1 (racemic) [Example 73]	6.57
CC(C)(C)[C@H]1CCc2nc3sc(C(=O)N[C@H](CCN4CCC[C@H]4CO)c4ccc(-c5ccc(=O)[nH]c5)cc4)cc3cc2C1 (racemic) [Example 38]	6.24
Cc1cc(-c2ccc([C@@H](CCN3CCCCC3)NC(=O)c3cc4cc5c(nc4s3)CC[C@H](C(C)(C)C)C5)cc2)cnc1O [Example 239]	5.85

P = CC(C)(C)[C@H]1CCc2nc3sc(C(=O)N[C@H](CCN4CCC(O)CC4)c4cccc(C(=O)N5CCO[C@H]6CNC[C@H]65)c4)nc3cc2C1 (racemic) [Example 161]
Q = CC1([C@H]2CCc3nc4sc(C(=O)N[C@H](CCN5CCC(O)CC5)c5ccc(N6CC(=O)NC6=O)nc5)nc4cc3C2)CC1 [Example 218]
Response body: label of entry with the larger pEC50; valid values P , Q . # respond with the chosen item's label
Q

I = CC(C)(C)[C@H]1CCc2nc3sc(C(=O)N[C@H](CCN4CCC(C(=O)O)CC4)c4cccc(C(=O)NC5CNC5)c4)nc3cc2C1 (racemic) [Example 122]
II = CC(C)(C)[C@H]1CCc2nc3sc(C(=O)N[C@H](CCN4CCC(O)CC4)c4cccc(C(=O)N[C@@H]5CCNC5)c4)nc3cc2C1 (racemic) [Example 130]
Response body: label of entry with the larger pEC50; valid values I , II . # respond with the chosen item's label
II

A = CC(C)(C)[C@H]1CCc2nc3sc(C(=O)N[C@H](CCN4CCC(O)CC4)c4cccc(C(=O)N5CC(CN6CCCC6)C5)c4)nc3cc2C1 (racemic) [Example 132]
B = CN1CC(CNC(=O)c2cccc([C@@H](CCN3CCC(O)CC3)NC(=O)c3nc4cc5c(nc4s3)CC[C@H](C(C)(C)C)C5)c2)CC1=O (mixture of isomers) [Example 159]
Response body: label of entry with the larger pEC50; valid values A , B . # respond with the chosen item's label
A
